Reported TGI values are given for each entry in this list.
# System: CAKI-1 renal
# experiment summary: NCI tumour cell line growth inhibition, 48 h

Solved entries:
Problem: Data request, read-out TGI, for COC(=O)CCc1cc(OC)c2oc(-c3ccc(OC)c(OC)c3)c(CO)c2c1
Result: > 100 µM

Problem: Reported TGI for O=C1c2c(c3c4ccccc4n(CCCCCCN4CCOCC4)c3c3[nH]c4ccccc4c23)C(=O)N1O : what is it?
Result: 28.9 µM

Problem: // returns reported TGI for input CCN(CC)CCC(=O)Nc1ccc2sc3ccccc3c(=O)c2n1
Result: 28.8 µM

Problem: For the compound Cn1c2ccccc2c(=NNc2ccc(S(=O)(=O)N=C(N)N)cc2)c2ccccc21 , what TGI is on record?
Result: 38.8 µM

Now for a further compound.
Problem: Fill in the blank: the reported TGI of Cc1ccc(-c2nc3ccccc3c(=O)n2NC2OC(CO)C(O)C(O)C2O)cc1 (stereo not given) is ____.
Result: > 100 µM
